System: soybean (Glycine max)
Assay: Test C pre/postemergence
Assay type: in vivo
Conditions: Preemergence, 250 g ai/ha; scale 0 to 100
Text: […]
readout type: Plant response rating, Soybean

>>> df
                                   compound                    readout_type  reported
0  CCCOC(=O)c1nc(C2CC2)nc(N)c1Br [Compound 15]  Plant response rating, Soybean        95
1  CCOC(=O)Cc1nc(C2CC2)nc(N=CN(C)C)c1Br [Compound 33]  Plant response rating, Soybean        80
2  CCOC(=O)Cc1nc(C2CC2)nc(N)c1Br [Compound 12]  Plant response rating, Soybean        70
3    Nc1nc(C2CC2)nc(C=NO)c1Br [Compound 27]  Plant response rating, Soybean        20
4  CCOC(=O)C(Cl)c1nc(C2CC2)nc(N)c1Br (centres unmarked) [Compound 31]  Plant response rating, Soybean        80

---

System: Surinam grass (Brachiaria decumbens)
Assay: Test C pre/postemergence
Assay type: in vivo
Conditions: Urochloa decumbens, post-emergence, Postemergence, 125 g ai/ha; scale 0 to 100 (0 no effect, 100 complete control); read-out: Surinam Grass plant response rating
Catalogue of compounds with associated pest or weed control at 125 g/ha
readout type: pest or weed control at 125 g/ha (%)

>>> print(df.to_string())
              structure_smiles_string  units_of_measure  reported
0          COC(=O)c1nc(C2CC2)nc(N)c1F                 %         5
1        CCOC(=O)c1nc(C2CC2)nc(N)c1Cl                 %        75
2          Nc1nc(C2CC2)nc(C(=O)O)c1Cl                 %        60
3         CCOC(=O)c1nc(C2CC2)nc(N)c1F                 %         0
4         COC(=O)c1nc(C2CC2)nc(N)c1Br                 %        65
5  Nc1nc(-c2ccc(Cl)cc2)nc(C(=O)O)c1Cl                 %        80

---

Catalogue of molecules with associated Plant response rating, Crabgrass
Test system: crabgrass (Digitaria sanguinalis)
Assay: Test C pre/postemergence
Assay type: in vivo
Settings: Preemergence, 31 g ai/ha; scale 0 to 100, 0 no effect, 100 complete control
readout type: Plant response rating, Crabgrass

                                   molecule  reported
0  COC(=O)c1nc(C2CC2)nc(N=CN(C)C)c1Br [Compound 19]         0
1  CCOC(=O)C(OC(C)=O)c1nc(C2CC2)nc(N)c1Br (stereo not shown) [Compound 47]       100
2  Nc1nc(C2CC2)nc(C(=O)O)c1Cl [Compound 135]         0
3  Nc1nc(-c2ccc(Cl)cc2)nc(C(=O)[O-])c1Cl.[Na+] [Compound 117]         0

---

Tested on: bermudagrass (Cynodon dactylon)
Assay: Test C pre/postemergence
Type: in vivo
Details: Postemergence, 500 g ai/ha; scale 0 to 100
Catalogue of compounds with associated Plant response rating, Bermudagrass
readout type: Plant response rating, Bermudagrass

>>> df
                structure_smiles_string                   assayed_system  reported
0  CCOC(=O)c1nc(-c2ccc(Cl)cc2)nc(N)c1Br  bermudagrass (Cynodon dactylon)        20
1   COC(=O)CNc1nc(C2CC2)nc(C(=O)OC)c1Br  bermudagrass (Cynodon dactylon)         0
2              Nc1nc(C2CC2)nc(C=NO)c1Br  bermudagrass (Cynodon dactylon)        30
3             CNN=Cc1nc(C2CC2)nc(N)c1Br  bermudagrass (Cynodon dactylon)        65
